System: HCT-116 colon
assay-summary: NCI tumour cell line growth inhibition, 48 h
Measured TGI, listed per entry.

COc1cc2c(cc1OCc1ccccc1)N=C[C@@H]1C/C(=C/C(=O)NCCCN3C(=O)c4cccc5cccc(c45)C3=O)CN1C2=O    > 100 µM
Cc1ccc(C(=O)c2oc3ccc4c(C)cc(=O)oc4c3c2C)cc1    > 100 µM
Clc1nc(Oc2ccccc2)nc(-c2cn(-c3ccccc3)c3ccccc23)n1    11.8 µM
COc1ccc(-c2c(C#N)c(-c3ccccc3)n(NS(=O)(=O)c3ccccc3)c(=O)c2C#N)cc1    > 100 µM
Cc1cc(S(=O)(=O)Nc2nc(N)nc(N3N=CCC3C)n2)c(S)cc1Cl (centres undefined)    > 10 µM
Nc1nc(-c2cccc([N+](=O)[O-])c2)c(Br)c(=O)[nH]1    > 100 µM
CCOc1ccc(/C=C/C(=O)c2ccccc2)cc1    27.4 µM
CC1(C)[C@@H]2C[C@H]1c1cnc(-c3ccccn3)cc1C2[C@@H]1c2cc(-c3ccccn3)ncc2[C@@H]2C[C@H]1C2(C)C (some centres undefined)    > 100 µM

For HCT-116 colon, provide TGI of CCOC(=O)c1c(N2CCOCC2)[nH]c(=O)c(C(c2ccc(OC)cc2)c2c(O)c(C(=O)OCC)c(N3CCOCC3)[nH]c2=O)c1O please.
> 100 µM

====

System: OVCAR-5 ovarian
assay-summary: NCI tumour cell line growth inhibition, 48 h
quantity-measured: TGI

# count of solved cases: 5
COc1cc(/C=C2/SC(c3ccccc3)N(c3cccc([N+](=O)[O-])c3)C2=O)cc(OC)c1OC (configuration not stated)    > 100 µM
O=C(Nc1ccc(Cl)cc1)Nc1ccc(Cl)c(Cl)c1    > 100 µM
COc1cc(C2C3=C(COC3=O)OC(C)(C)Oc3cc4c(cc32)OCO4)cc(OC)c1OC (configuration not stated)    > 100 µM
CC(C)=CC(C(O)c1ccccc1)S(=O)(=O)c1nccn1C (configuration not stated)    > 100 µM
c1ccc2c(c1)[I+]c1ccccc1-2    > 50 µM

# lookup: TGI of CC1=C2C(O)C(C(C)CO)C(O)CC2(C)C(O)CC1 (configuration not stated)
> 100 µM

# lookup: TGI of COC(=O)[C@@H]1N2C(=S)N(c3ccccc3)C(=O)[C@H]2SC1(C)C
> 100 µM

====

System: DMS 273 small cell lung
assay-summary: NCI tumour cell line growth inhibition, 48 h
quantity-measured: TGI

# count of solved cases: 3
COP1(=O)CC2C(Cl)(Cl)C2(C)C1 (stereo unspecified)    > 100 µM
CC(C)=CC(C(O)c1ccccc1)S(=O)(=O)c1nccn1C (stereo unspecified)    > 100 µM
CC1(C)C(=O)N(c2ccccc2)C(=O)N1c1nc2ccccc2[nH]1    > 100 µM

# lookup: TGI of Cc1cc2c(CC(=O)O)[nH]nc2c(C(=O)O)c1C
> 100 µM

# lookup: TGI of O=c1cc(-c2ccccc2)[nH]c2cc(Cl)cc(Cl)c12
> 100 µM

# lookup: TGI of C[CH2][Sn]1([CH2]C)[O]C(=O)[O][Sn]([CH2]C)([CH2]C)[O]1
> 100 µM

# lookup: TGI of CC(=O)O[C@H]1C(N(C)C(=O)c2ccccc2)CC[C@]2(C)C3CC[C@@]4(C)C(CC(O)[C@@H]4C(C)N(C)C)[C@@H]3CCC12 (stereo partly specified)
> 100 µM

# lookup: TGI of CCOc1ccccc1NC(=O)/C=C1\NC(=O)CS1
> 100 µM

# lookup: TGI of NC(=O)COc1ccccc1
> 100 µM

# lookup: TGI of Nc1ccc(C(=O)N/C(=C\C=C\c2ccco2)c2nc3[nH]c(=S)[nH]c(=O)c3[nH]2)cc1
> 100 µM

# lookup: TGI of CCOC(=O)C(C)(C)Oc1ccc2c(=O)cc(-c3ccc(Cl)cc3)oc2c1
> 100 µM

====

Tested on: OVCAR-3 ovarian
assay-summary: NCI tumour cell line growth inhibition, 48 h
Label Not met if TGI falls below 30 µM; label Met in every other case.

Cc1cc2nc3c(C(OC4OC(CO)C(O)C(O)C4O)C(O)CO)nn(-c4ccccc4)c3nc2cc1C (stereo not given)    Met
S=C(Nc1ccc(-c2nc3ccccc3[nH]2)cc1)NC1CCCCC1    Met
COc1ccc(/C=C/c2cc(OC)c(OC)c(OC)c2)cc1NC(=O)/C=C/c1ccc(F)cc1    Not met

Could you verify whether the entry N#CCCN(CCCN(C(=O)Nc1ccccc1)c1ccccc1)C(=O)Nc1ccccc1 shows TGI of no less than 30 µM?
Met

====

Measured TGI, listed per entry.
Tested on: HOP-92 NSCLC
assay-summary: NCI tumour cell line growth inhibition, 48 h

# count of solved cases: 3
NC(=O)c1c[se]c(C2OC(CO)C(O)C2O)n1 (stereo unspecified)    > 100 µM
NC(=O)CC(Nc1ncc2c(n1)-c1ccccc1OC2)C(=O)O (stereo unspecified)    > 100 µM
CC(C)n1c(=O)n(-c2ccccc2)n(C(C)(C)C)c1=O    > 100 µM

With those in mind, consider the next molecule.
# lookup: TGI of O=C(C(O)c1cn(Cc2ccccc2)c2ccccc12)N1CCCCC1 (stereo unspecified)
> 100 µM

====

Tested on: ACHN renal
assay-summary: NCI tumour cell line growth inhibition, 48 h
Measured TGI, listed per entry.

COc1ccc(-c2c(C#N)c(-c3ccccc3)n(NS(=O)(=O)c3ccccc3)c(=O)c2C#N)cc1    > 100 µM
COC(=O)c1cncc2c1CC1C3(C(=O)OC)C=NC(C4C(CO)=CCC43)C21C (stereo unspecified)    > 100 µM
NC(=O)COc1ccccc1    > 100 µM
CCOP(=O)(OCC)C(Nc1ccc(F)cc1)c1cccc([N+](=O)[O-])c1 (stereo unspecified)    > 100 µM
CC(C)=CC(C(O)c1ccccc1)S(=O)(=O)c1nccn1C (stereo unspecified)    > 100 µM

# lookup: TGI of COc1cc(-c2cc(=O)c3cc4c(cc3[nH]2)OCO4)cc(OC)c1OC
> 100 µM

# lookup: TGI of CC(C)c1ccc(Cc2cnc(NC(=O)c3cc(Br)cs3)s2)cc1
> 100 µM

# lookup: TGI of O=C(c1ccco1)N(C(=S)OCc1ccccn1)c1ccccc1
> 100 µM

# lookup: TGI of CCOC(=O)[C@@H](C)C[C@H](Cc1ccccc1)NC(=O)c1csc([C@@H](C[C@H](C(C)C)N(C)C(=O)[C@@H](NC(=O)[C@H]2C[C@H](O[Si](C)(C)C(C)(C)C)CCN2C)C(C)C)OC(C)=O)n1
> 8.33 µM

# lookup: TGI of Oc1ccc(Br)cc1Sc1cc(Br)ccc1O
20.8 µM

# lookup: TGI of O=c1cc(-c2ccccc2)[nH]c2cc(Cl)cc(Cl)c12
> 100 µM

====

Measured log10(TGI), listed per entry.
System: UACC-62 melanoma
assay-summary: NCI tumour cell line growth inhibition, 48 h
Values reflect log10 of reported TGI (µM).

CCN(CC)CCCNc1ccc2nnn3c4ccc(O)cc4c(=O)c1c23    1.49
CN1CCN(Cc2ccc(NC(=O)c3cncc(C#Cc4cnc(N)c5ccc(F)cc45)c3)cc2C(F)(F)F)CC1    0.93
COC1=CC23C=CC1[C@@H](c1ccccc1)C2=C(C)C(=O)N3C(=O)NC1CCCCC1 (some centres undefined)    1.68
CN1CCN(CCSC2Cc3cc(Cl)ccc3Sc3ccccc32)CC1 (centres undefined)    0.56
CC1CC(c2ccccc2)=Nc2ccccc2S1(=O)=O (centres undefined)    1.75
CN(C)CCNc1nc2ccccc2c2c1c1c(n2Cc2ccccc2)-c2ccccc2C1=O    1.54
CC1(C)C=CC[C@]2(C)[C@H]3CC[C@@H]4[C@H]5[C@H](C(=O)/C=C/c6cccnc6)CC[C@]5(CO)CC[C@@]4(C)[C@]3(C)CC[C@@H]12    0.41
CCCCCCCCCCCCCCCCCCOCC(O)COP(=O)(O)OCC1OC(n2cc(F)c(=O)[nH]c2=O)CC1O (centres undefined)    0.99
Clc1nc(Oc2ccccc2)nc(-c2cn(-c3ccccc3)c3ccccc23)n1    1.42
Oc1ccc(N=Nc2ccc(Cl)cc2)cc1    1.56

# lookup: log10(TGI) of COc1cc2ccnc3c2c(c1O)N(C)C=C3
1.41

# lookup: log10(TGI) of Cc1nc(N)sc1C(=O)/C=C/c1ccc(/C=C/C(=O)c2sc(NC(=O)CCCCCCCCC(=O)Nc3nc(C)c(C(=O)/C=C/c4ccc(/C=C/C(=O)c5sc(N)nc5C)cc4)s3)nc2C)cc1
1.94

# lookup: log10(TGI) of Cc1nn(C(=O)c2ccccc2O)c2c1C(c1ccccc1)SC(N)=N2 (centres undefined)
0.99

# lookup: log10(TGI) of CCCCCCCCCCCCCCCCNc1nc(=O)n(C2CC(O)C(CO)O2)cc1F (centres undefined)
1.36
